Source listed as the supplement of paper PMC12764529.

Form field: folding stability dG unfold (one value per entry).
- ASSAY_COMMENT: folding stability dG unfold from chymotrypsin proteolysis; higher = more stable
Response body: numeric value in kcal/mol, unit text excluded.

Some sequences with known folding stability dG unfold results, for comparison:
MKIEIEIEREEDRVIVRIKIERKDGKEIELELEVPSLEEALEAIEKILASLPPEEVKIVEIEIYNADGEKIS [r1_169_TrROS_Hall]
1.85
SAGGSAGGSAGMRLLTVEYFDENGNPLSVEEIELYIERPPPPFLELEIDPRTGEPRFTGLSAGGSAGGSAGG [r17_348_JUSTAS]
1.68
SAMKKGEKVKVTLEIEVNGKKYKIELVYDKENNTYTIKIKNEKTGETKTIEVKAKTKEEALEAAKKLLESAG [r14_65_TrROS_Hall]
2.55
SSSSLLKSSTEEVEVSTTFTKTSPDGSLTPVGTTTEVVTKTVKTVPKEILEKLKKEKEKPLPPEGNLGYLSA [r9_1192_JUSTAS]
0.495

Query string: What does the record list as folding stability dG unfold for SAMKLPKDVEIKEIKFDPEKTVTIKIKVKKYDFFIYDPETGKVIVIKPGEEKEITLPANIPLLIFAIKPSAG [r14_385_TrMRF] ?
Result string: 1.91

Query string: What does the record list as folding stability dG unfold for SAGGSAGGSGDGDYKNDPNGEQERKPKPPPVPPILVFKVELDIDANGNLDLSPDLGWFPPDAISAGGSAGGS [r12_1027_TrROS] ?
Result string: 1.03

Query string: What does the record list as folding stability dG unfold for SAGGSASLEEVASLPASALAAAAGLTALSVEVTREPDGTVTVTIETRPPDGPVVTVTYTFPVDPAASAGGSA [r15_805_JUSTAS] ?
Result string: 2.6
